test: Encapsulation efficiency and mRNA quantity by Ribogreen fluorescence plate assay; assay type: physicochemical; conditions: LNP with mRNA payload formulated with the lipid; 16.8/4.0/2.0/1.0; Lipids:mRNA 25:1; (total RNA - unencapsulated RNA)/total RNA
Listing of recorded EE % by entry.
experimentalEndpoint: EE % (%)

| molecule | recordedValue |
| --- | --- |
| CCCCCCC(CCCC)COC(=O)OCCOC(=O)CCN(CCCN(C)CCCN(CCC(=O)OCCOC(=O)OCC(CCCC)CCCCCC)CCC(=O)OCCOC(=O)OCC(CCCC)CCCCCC)CCC(=O)OCCOC(=O)OCC(CCCC)CCCCCC (stereo not shown) | 85.2 |
| CCCCCCC(CCCC)COC(=O)OCCOC(=O)CCN(CCCN(CCCO)CCCN(CCC(=O)OCCOC(=O)OCC(CCCC)CCCCCC)CCC(=O)OCCOC(=O)OCC(CCCC)CCCCCC)CCC(=O)OCCOC(=O)OCC(CCCC)CCCCCC (stereo not shown) | 96.1 |
| CCCCCCCCCC(CC)OC(=O)OCCOC(=O)CCN(CCCN(C)CCCN(CCC(=O)OCCOC(=O)OC(CC)CCCCCCCCC)CCC(=O)OCCOC(=O)OC(CC)CCCCCCCCC)CCC(=O)OCCOC(=O)OC(CC)CCCCCCCCC (stereo not shown) [Lipid L0659] | 96.2 |
| CCCCCCCC(CCCCCC)OC(=O)OCCOC(=O)CCN(CCCN(C)CCCN(CCC(=O)OCCOC(=O)OC(CCCCCC)CCCCCCC)CCC(=O)OCCOC(=O)OC(CCCCCC)CCCCCCC)CCC(=O)OCCOC(=O)OC(CCCCCC)CCCCCCC (stereo not shown) | 90.6 |

----------
test: LNP size and polydispersity index by dynamic light scattering (Zetasizer Nano ZS); type: physicochemical; conditions: LNP with mRNA payload formulated with the lipid; active lipid/Cholesterol/DOPC/DMG-PEG 16.8/4.0/2.0/1.0; Lipids:mRNA 25:1; PBS pH 7.4, 25° C.
Listing of recorded Size (nm) by entry.

| molecule | Size (nm) |
| --- | --- |
| CC(C)CCCCCCSSCCOC(=O)CCN(CCCn1ccnc1)CCC(=O)OCCSSCCCCCCC(C)C | 161 |
| CCC(C)CCCCCOC(=O)CCN(CCCN(C)CCCN(CCC(=O)OCCCCCC(C)CC)CCC(=O)OCCCCCC(C)CC)CCC(=O)OCCCCCC(C)CC (centres unmarked) | 121.9 |
| CCCCCCCCC(CCC)OC(=O)OCCOC(=O)CCN(CCC(=O)OCCOC(=O)OC(CCC)CCCCCCCC)CCN(C)CCN(CCC(=O)OCCOC(=O)OC(CCC)CCCCCCCC)CCC(=O)OCCOC(=O)OC(CCC)CCCCCCCC (centres unmarked) | 121.5 |
| CCC(C)CCCCCOC(=O)CCN(CCC(=O)OCCCCCC(C)CC)CCN(C)CCN(CCC(=O)OCCCCCC(C)CC)CCC(=O)OCCCCCC(C)CC (centres unmarked) | 122.2 |
| CCCCC/C=C\CCCOC(=O)CCN(CCCN(C)CCCN(CCC(=O)OCCC/C=C\CCCCC)CCC(=O)OCCC/C=C\CCCCC)CCC(=O)OCCC/C=C\CCCCC | 95.98 |
| CCCCCCCCCC(CC)OC(=O)OCCOC(=O)CCN(CCCN(C)CCCN(CCC(=O)OCCOC(=O)OC(CC)CCCCCCCCC)CCC(=O)OCCOC(=O)OC(CC)CCCCCCCCC)CCC(=O)OCCOC(=O)OC(CC)CCCCCCCCC (centres unmarked) [Lipid L0659] | 104.3 |
| CCCCCCC(CCCC)COC(=O)CCOC(=O)CCN(CCCN(C)CCCN(CCC(=O)OCCC(=O)OCC(CCCC)CCCCCC)CCC(=O)OCCC(=O)OCC(CCCC)CCCCCC)CCC(=O)OCCC(=O)OCC(CCCC)CCCCCC (centres unmarked) | 120.3 |
| CC(C)CCCCCCSSCCOC(=O)CCN(CCCN(C)CCCN(CCC(=O)OCCSSCCCCCCC(C)C)CCC(=O)OCCSSCCCCCCC(C)C)CCC(=O)OCCSSCCCCCCC(C)C | 186.4 |
| CC(C)CCCCCCCCSSCCOC(=O)CCN(CCCN(C)CCCN(CCC(=O)OCCSSCCCCCCCCC(C)C)CCC(=O)OCCSSCCCCCCCCC(C)C)CCC(=O)OCCSSCCCCCCCCC(C)C [Lipid L0814] | 178.8 |
| CC(C)CCCCCCCCSSCCOC(=O)CCN(CCCN(C)CCCN(CCC(=O)OCCSSCCCCCCCCC(C)C)CCC(=O)OCCSSCCCCCCCCC(C)C)CCC(=O)OCCSSCCCCCCCCC(C)C [Lipid L0813] | 183 |
| CCCCCCC(CCCC)COC(=O)OCCOC(=O)CCN(CCCN(CCCCO)CCCN(CCC(=O)OCCOC(=O)OCC(CCCC)CCCCCC)CCC(=O)OCCOC(=O)OCC(CCCC)CCCCCC)CCC(=O)OCCOC(=O)OCC(CCCC)CCCCCC (centres unmarked) | 101.7 |
